TESTED_TARGET: α4β1 (Homo sapiens, UniProt P05556+P13612)
Construct: Jurkat™ lymphoma T cells express high levels of α4β1 integrin; endogenous in cells; host or cells: Jurkat cells
Sequence (P13612 34-1032): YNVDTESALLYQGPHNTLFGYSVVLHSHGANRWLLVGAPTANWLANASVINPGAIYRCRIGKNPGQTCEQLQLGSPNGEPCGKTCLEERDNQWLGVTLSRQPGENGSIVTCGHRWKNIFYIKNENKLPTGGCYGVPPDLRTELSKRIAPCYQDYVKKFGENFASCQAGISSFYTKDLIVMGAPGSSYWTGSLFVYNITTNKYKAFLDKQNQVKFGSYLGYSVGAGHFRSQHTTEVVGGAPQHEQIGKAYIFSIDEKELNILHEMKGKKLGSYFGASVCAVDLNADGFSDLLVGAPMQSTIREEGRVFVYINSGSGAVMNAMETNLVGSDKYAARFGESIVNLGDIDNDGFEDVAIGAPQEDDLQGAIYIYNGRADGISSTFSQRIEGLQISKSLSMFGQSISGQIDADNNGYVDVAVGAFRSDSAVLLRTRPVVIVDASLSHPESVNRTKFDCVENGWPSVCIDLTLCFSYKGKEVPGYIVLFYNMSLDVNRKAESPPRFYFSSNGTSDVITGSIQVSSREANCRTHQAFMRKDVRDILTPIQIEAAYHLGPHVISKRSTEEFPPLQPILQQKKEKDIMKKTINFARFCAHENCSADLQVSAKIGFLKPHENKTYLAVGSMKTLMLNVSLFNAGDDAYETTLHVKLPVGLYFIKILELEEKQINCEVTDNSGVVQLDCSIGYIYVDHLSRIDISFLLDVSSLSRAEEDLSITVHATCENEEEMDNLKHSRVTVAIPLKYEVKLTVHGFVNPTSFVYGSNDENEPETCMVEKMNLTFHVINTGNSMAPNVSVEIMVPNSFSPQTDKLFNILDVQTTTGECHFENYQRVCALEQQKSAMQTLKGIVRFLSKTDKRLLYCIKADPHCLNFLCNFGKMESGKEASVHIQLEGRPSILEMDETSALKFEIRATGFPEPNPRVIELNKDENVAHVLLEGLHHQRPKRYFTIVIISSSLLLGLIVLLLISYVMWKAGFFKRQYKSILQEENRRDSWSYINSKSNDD
Sequence (P05556 21-798): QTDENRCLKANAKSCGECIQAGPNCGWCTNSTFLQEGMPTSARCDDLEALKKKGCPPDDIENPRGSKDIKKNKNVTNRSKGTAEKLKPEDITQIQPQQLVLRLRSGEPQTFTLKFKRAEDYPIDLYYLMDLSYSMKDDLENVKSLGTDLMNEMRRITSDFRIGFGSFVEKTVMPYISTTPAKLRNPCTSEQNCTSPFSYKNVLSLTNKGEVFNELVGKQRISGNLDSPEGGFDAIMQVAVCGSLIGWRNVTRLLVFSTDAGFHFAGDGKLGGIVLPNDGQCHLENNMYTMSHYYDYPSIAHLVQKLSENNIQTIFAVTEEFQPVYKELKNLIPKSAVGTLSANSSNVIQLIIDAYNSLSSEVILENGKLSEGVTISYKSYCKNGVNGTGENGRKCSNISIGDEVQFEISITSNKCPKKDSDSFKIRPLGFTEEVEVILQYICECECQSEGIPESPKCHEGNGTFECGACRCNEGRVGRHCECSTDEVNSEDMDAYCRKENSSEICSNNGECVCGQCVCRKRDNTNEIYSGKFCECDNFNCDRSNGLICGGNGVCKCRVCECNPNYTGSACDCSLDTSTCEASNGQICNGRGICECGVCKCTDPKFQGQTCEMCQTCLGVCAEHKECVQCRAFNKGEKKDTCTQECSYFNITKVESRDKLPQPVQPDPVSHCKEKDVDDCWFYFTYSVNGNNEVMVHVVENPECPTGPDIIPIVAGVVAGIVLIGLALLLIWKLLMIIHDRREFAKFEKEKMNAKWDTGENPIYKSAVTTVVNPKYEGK
ASSAY_PROTOCOL: α4β1-dependent Jurkat cell adhesion to human fibronectin
Type: cell-based
TEST_CONDITIONS: TS2/16-activated α4β1, anti-α5 antibody present; read-out: EC50, Jurkat adhesion to FN
ENDPOINT_LABEL: EC50
Please state the number and follow it with the unit.

Quick one: EC50 of CC1(C)SCN(S(=O)(=O)c2cccnc2)[C@@H]1C(=O)N[C@@H](Cc1ccc(-n2c(=O)[nH]c3cccnc32)cc1)C(=O)O ? 0.1 nM
